Consider the following molecules; for each one, report its SKNSH (0.1 μM), activity in % of control.
- Tested system: DβH (Homo sapiens)
- Construct: cellular homogenate (75 μg total protein); host or cells: SK-N-SH cells (homogenate)
- Assay explanation: DβH inhibition assay in SK-N-SH cellular homogenates (tyramine to octopamine)
- Assay type: biochemical
- Conditions: SK-N-SH cell homogenate, inhibitor 0.1 μM

[Q] What value of measured SKNSH (0.1 μM), activity in % of control is listed for CCOC(=O)Cc1[nH]c(=S)n2c1[C@@H]1C[C@]1(c1cc(Cl)ccc1F)C2 ?
[A] 33.8 % of control

[Q] Now the molecule O=C(O)Cc1[nH]c(=S)n2c1[C@@H]1C[C@]1(c1cc(Cl)ccc1F)C2
[A] 9.2 % of control

[Q] Now this one: O=C(O)Cc1[nH]c(=S)n2c1[C@@H]1C[C@]1(c1cc(F)ccc1F)C2
[A] 36.9 % of control

[Q] Note, next up: O=C(O)Cc1[nH]c(=S)n2c1C[C@@H](c1c(F)c(F)cc(F)c1F)C2
[A] 46.4 % of control

[Q] Please answer likewise for CCOC(=O)Cc1[nH]c(=S)n2c1[C@@H]1C[C@]1(c1cc(F)cc(Cl)c1)C2
[A] 48.9 % of control

----------
I'd be grateful if you could share measured Plasma (0.1 μM), activity in % of control for these entries.
- Tested system: Dopamine beta hydroxylase (Homo sapiens, UniProt P09172)
- Construct: 125 μl of plasma; tissue Instituto Português do Sangue Transplantação; host or cells: human plasma from healthy donors
- Assay explanation: Dopamine beta hydroxylase activity in human plasma
- Type: biochemical
- Conditions: inhibitor 0.1 μM

[Q] Bench note: what Plasma (0.1 μM), activity in % of control did Cn1c(CC(=O)NCC#N)c2n(c1=S)C[C@@]1(c3cc(Br)ccc3F)C[C@@H]21 show?
[A] 12.2 % of control

[Q] Entry Cl.O=C(Cc1[nH]c(=S)n2c1C[C@@H](c1c(F)ccc(Cl)c1F)C2)NCc1cccnc1 please
[A] 5.4 % of control

[Q] Now give it for CN(C(=O)Cc1c2n(c(=S)n1C)C[C@@]1(c3cc(Br)ccc3F)C[C@@H]21)C1CCOCC1 too.
[A] 11.8 % of control

[Q] Field entry: O=C(O)Cc1[nH]c(=S)n2c1C[C@@H](c1cc(Br)ccc1F)C2
[A] 72.9 % of control

[Q] Also need O=S1(=O)CCC(NCCc2[nH]c(=S)n3c2C[C@H](c2c(F)ccc(Br)c2F)C3)CC1 , thanks.
[A] 29.5 % of control

[Q] Continue with OCCc1[nH]c(=S)n2c1C[C@H](c1c(F)c(F)cc(F)c1F)C2
[A] 46.3 % of control

[Q] Then O=C(Cc1[nH]c(=S)n2c1C[C@H](c1c(F)ccc(Br)c1F)C2)N[C@H]1CCC[C@@H]1O ?
[A] 46.0 % of control

[Q] Proceed to NC(=O)C1CCN(C(=O)Cc2[nH]c(=S)n3c2C[C@H](c2c(F)c(F)cc(F)c2F)C3)CC1
[A] 70.9 % of control

----------
Please go through the items and note down their Plasma (0.1 μM), activity in % of control.
- Tested system: Dopamine beta hydroxylase (Homo sapiens, UniProt P09172)
- Construct: 125 μl of plasma; tissue Instituto Português do Sangue Transplantação; host or cells: human plasma from healthy donors
- Assay explanation: Dopamine beta hydroxylase activity in human plasma
- Type: biochemical
- Conditions: inhibitor 0.1 μM

[Q] Look at this molecule and give its reported Plasma (0.1 μM), activity in % of control. CN1CCN(C(=O)Cc2c3n(c(=S)n2C)C[C@@]2(c4cc(Cl)ccc4F)C[C@@H]32)CC1
[A] 59.5 % of control

[Q] Now this one: Cn1c(CC(=O)NC2CCCCC2)c2n(c1=S)C[C@@]1(c3cc(Br)ccc3F)C[C@@H]21
[A] 1.7 % of control

[Q] Also Cn1c(CC(=O)N2CCOCC2)c2n(c1=S)C[C@H](c1cc(F)cc(F)c1)C2 , if possible.
[A] 61.0 % of control

[Q] And for CC(C)NC(=O)Cc1[nH]c(=S)n2c1C[C@H](c1c(F)ccc(Br)c1F)C2 ?
[A] 82.4 % of control

[Q] Item: CN(C(=O)Cc1[nH]c(=S)n2c1[C@@H]1C[C@]1(c1c(F)ccc(Cl)c1F)C2)C1CCOCC1
[A] 3.2 % of control

[Q] How about CN(C(=O)Cc1c2n(c(=S)n1C)C[C@@H](c1c(F)c(F)cc(F)c1F)C2)C1CCOC1 (stereo partly shown) ?
[A] 40.7 % of control

[Q] Try this molecule too: Cn1c(CC(=O)N2CCC[C@@H]2C(F)(F)F)c2n(c1=S)C[C@@H](c1c(F)ccc(F)c1F)C2
[A] 73.7 % of control

[Q] Try CN(C(=O)Cc1c2n(c(=S)n1C)C[C@@]1(c3cc(Br)ccc3F)C[C@@H]21)C1COC1 next.
[A] 7.5 % of control

[Q] And the next one, CS(=O)(=O)NC(=O)Cc1[nH]c(=S)n2c1C[C@@H](c1cc(Br)ccc1F)C2 ?
[A] 69.2 % of control

[Q] Next molecule: CN(C(=O)Cc1c2n(c(=S)n1C)C[C@H](c1c(F)ccc(Cl)c1F)C2)C1CCOC1 (stereo partly shown)
[A] 14.8 % of control

[Q] Also, NC(=O)Cc1[nH]c(=S)n2c1C[C@@H](c1c(F)ccc(Cl)c1F)C2 please.
[A] 46.9 % of control

[Q] Next molecule up: O=C(Cc1[nH]c(=S)n2c1C[C@@H](c1c(F)ccc(Br)c1F)C2)N1CCC2(CCOC2)C1 (stereo partly shown)
[A] 5.0 % of control

[Q] Moving on to Cn1c(CC(=O)N2CCCC2)c2n(c1=S)C[C@@]1(c3cc(Cl)ccc3F)C[C@@H]21
[A] 38.8 % of control

[Q] Thanks! And O=C(Cc1[nH]c(=S)n2c1C[C@H](c1c(F)ccc(Br)c1F)C2)N[C@@H]1CCCC[C@H]1O ?
[A] 50.8 % of control

[Q] Another: O=C(Cc1[nH]c(=S)n2c1C[C@H](c1cc(Cl)ccc1F)C2)N[C@@H]1CCOC1
[A] 91.0 % of control

[Q] Item: CN(C(=O)Cc1c2n(c(=S)n1C)C[C@H](c1c(F)ccc(Cl)c1F)C2)[C@@H]1CCOC1
[A] 4.0 % of control

----------
- Tested system: Dopamine beta hydroxylase (Homo sapiens, UniProt P09172)
- Construct: 125 μl of plasma; tissue Instituto Português do Sangue Transplantação; host or cells: human plasma from healthy donors
- Assay explanation: Dopamine beta hydroxylase activity in human plasma
- Type: biochemical
- Conditions: inhibitor 0.01 μM
Structures can show the parent of a compound that is named as a salt.
Measurement type: Plasma (0.01 μM), activity in % of control

[Q] I am curious: what Plasma (0.01 μM), activity in % of control value has been reported for Cn1c(CC(=O)N2CCCC2)c2n(c1=S)C[C@@]1(c3cc(Cl)ccc3F)C[C@@H]21 ?
[A] 86.2 % of control

[Q] Next compound up: CN1C[C@@H](NC(=O)Cc2c3n(c(=S)n2C)C[C@@H](c2c(F)ccc(F)c2F)C3)CC1=O
[A] 75.2 % of control

[Q] Same again, this time with Cn1c(CC(=O)N[C@@H]2CCCOC2)c2n(c1=S)C[C@H](c1c(F)ccc(Br)c1F)C2
[A] 37.6 % of control

[Q] // next record Fc1cc(F)c(F)c([C@H]2Cc3c(CCCN4CCCC4)[nH]c(=S)n3C2)c1F [Example 219, hydrochloride]
[A] 69.9 % of control

[Q] Same lookup for O=C(Cc1[nH]c(=S)n2c1C[C@H](c1c(F)ccc(F)c1F)C2)NC1CCOCC1 , please.
[A] 116.3 % of control

[Q] And what about the compound Fc1ccc(Br)c(F)c1[C@@H]1Cc2c(CCN3CCOCC3)[nH]c(=S)n2C1 ?
[A] 77.3 % of control

[Q] O=C(Cc1[nH]c(=S)n2c1[C@@H]1C[C@]1(c1c(F)ccc(Cl)c1F)C2)N[C@@H]1CCOC1 , same question.
[A] 62.3 % of control

[Q] Field entry: Cl.Fc1cc(F)c(F)c([C@H]2Cc3c(CCN4CCOCC4)[nH]c(=S)n3C2)c1F
[A] 27.4 % of control

----------
Could you please report measured Plasma (0.01 μM), activity in % of control for the items listed next?
- Tested system: Dopamine beta hydroxylase (Homo sapiens)
- Construct: 125 μl of plasma; tissue Instituto Português do Sangue Transplantação; host or cells: human plasma from healthy donors
- Sequence (P09172 40-617 limits assumed): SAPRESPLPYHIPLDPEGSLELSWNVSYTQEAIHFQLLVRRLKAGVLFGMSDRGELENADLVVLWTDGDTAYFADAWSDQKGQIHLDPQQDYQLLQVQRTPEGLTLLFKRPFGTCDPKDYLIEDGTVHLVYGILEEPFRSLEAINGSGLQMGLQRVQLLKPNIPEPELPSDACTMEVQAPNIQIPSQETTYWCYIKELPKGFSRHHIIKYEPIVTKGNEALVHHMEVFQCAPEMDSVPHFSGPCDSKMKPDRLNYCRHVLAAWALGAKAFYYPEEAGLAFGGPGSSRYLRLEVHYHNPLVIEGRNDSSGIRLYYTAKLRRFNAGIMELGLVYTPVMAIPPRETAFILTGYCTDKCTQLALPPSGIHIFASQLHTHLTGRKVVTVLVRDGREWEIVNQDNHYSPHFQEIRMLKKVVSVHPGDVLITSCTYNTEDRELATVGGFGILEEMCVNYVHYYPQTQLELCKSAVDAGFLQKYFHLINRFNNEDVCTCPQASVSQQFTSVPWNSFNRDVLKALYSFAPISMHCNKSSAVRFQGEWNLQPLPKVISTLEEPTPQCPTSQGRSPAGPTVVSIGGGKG
- Assay explanation: Dopamine beta hydroxylase activity in human plasma
- Format: biochemical
- Conditions: inhibitor 0.01 μM

[Q] Bench note: what Plasma (0.01 μM), activity in % of control did Cl.Cn1c(CCNC2CCCC2)c2n(c1=S)C[C@@]1(c3cc(Cl)ccc3F)C[C@@H]21 show?
[A] 62.3 % of control

[Q] What about this compound? Cn1c(CC(=O)N[C@H]2CC[C@H](O)CC2)c2n(c1=S)C[C@@]1(c3cc(Br)ccc3F)C[C@@H]21
[A] 34.2 % of control

[Q] Now the compound COC[C@@H]1CCCN1C(=O)Cc1c2n(c(=S)n1C)C[C@@H](c1c(F)c(F)cc(F)c1F)C2
[A] 96.0 % of control

[Q] Cn1c(CC(=O)NC2CCOCC2)c2n(c1=S)C[C@H](c1c(F)ccc(Br)c1F)C2 , same question.
[A] 28.9 % of control

[Q] Similarly, Cn1c(CC(=O)Nc2cnoc2)c2n(c1=S)C[C@@H](c1c(F)ccc(F)c1F)C2 ?
[A] 79.0 % of control

[Q] Also Cn1c(CCN[C@@H]2CCOC2)c2n(c1=S)C[C@@]1(c3cc(Br)ccc3F)C[C@@H]21 , if possible.
[A] 101.2 % of control

[Q] Further, for Cn1c(CC(=O)N[C@@H]2CCOC2)c2n(c1=S)C[C@@H](c1cc(Cl)ccc1F)C2 ?
[A] 115.2 % of control

[Q] Next up: CN(C)C(=O)C1CCN(C(=O)Cc2c3n(c(=S)n2C)C[C@@H](c2c(F)ccc(F)c2F)C3)C1 (stereo partly drawn)
[A] 90.1 % of control

[Q] Now consider Fc1ccc(Br)cc1[C@]12C[C@H]1c1c(CCNCC(F)(F)F)[nH]c(=S)n1C2 .
[A] 99.2 % of control

[Q] Next: O=C(Cc1[nH]c(=S)n2c1C[C@@H](c1c(F)ccc(Br)c1F)C2)N[C@@H]1CCCOC1
[A] 59.6 % of control

[Q] [2H]C([2H])([2H])n1c(CC(=O)O)c2n(c1=S)C[C@@]1(c3cc(Br)ccc3F)C[C@@H]21 ?
[A] 50.2 % of control

[Q] Same question for Cn1c(CC(=O)N2CCOCC2)c2n(c1=S)C[C@@H](c1c(F)cccc1F)C2 please.
[A] 95.1 % of control

[Q] Entry to check: Cn1c(CC(=O)NCC(F)(F)F)c2n(c1=S)C[C@@]1(c3cc(Br)ccc3F)C[C@@H]21
[A] 83.5 % of control

[Q] Also, CN(C(=O)Cc1[nH]c(=S)n2c1C[C@@H](c1c(F)ccc(Br)c1F)C2)C1COC1 please.
[A] 77.0 % of control

[Q] Lookup CN(CCc1[nH]c(=S)n2c1[C@@H]1C[C@]1(c1cc(Br)ccc1F)C2)C1CCCC1.F
[A] 68.6 % of control

Origin of the recorded values: patent US11434242B2
